# Tested on: B. fragilis NCTC 9344
# testMethodNotes: anti-anaerobic activity, MIC/MBC in 96 well microtitre plates, strain C
# Type: cell-based, Bacteroides fragilis
# protocolConditions: Bacteroides fragilis, NCTC9344, 48 h, strain C; 99.9% reduction in viable count after 48 hours; read-out: MBC (Minimum Bactericidal Concentration)
Structures can show the parent of a compound that is named as a salt.
MBC values for the compounds below.
Kindly provide the numeric value in µg/mL only, without the unit symbol.

Consider the worked cases shown below.
Please supply the value of reported MBC for the item C[C@H](NC(=O)[C@H](Cc1cn(CC(Cl)(C(=O)c2ccc(Cl)cc2Cl)c2ccccc2)cn1)NC(=O)OC(C)(C)C)C(=O)OC(C)(C)C (some centres unmarked)
6.2

Output measured MBC for this item: COC(=O)CCc1cn(CC(Cl)(C(=O)c2ccc(Cl)cc2Cl)c2ccccc2)cn1 (centres unmarked)
1.5

Consider the compound N[C@@H](Cc1cn(CC(Cl)(C(=O)c2ccc(Cl)cc2Cl)c2ccccc2)cn1)C(=O)O (some centres unmarked) . State its measured MBC.
0.8

Read the entry C[C@H](NC(=O)[C@@H](N)Cc1cn(CC(Cl)(C(=O)c2ccc(Cl)cc2Cl)c2ccccc2)cn1)C(=O)O (some centres unmarked) and write its reported MBC.
6.2

Dear colleague, please send me the reported MBC for O=C(c1ccc(Cl)cc1Cl)C(Cl)(Cn1ccnc1)c1ccccc1 (centres unmarked) when you can.
12.5

Tell us which MBC value is on record for Cc1ncc([N+](=O)[O-])n1CCO [Metronidazole, reference compound]
0.8

Give a short answer stating reported MBC for O=C(O)/C=C/c1cn(CC(Cl)(C(=O)c2ccc(Cl)cc2Cl)c2ccccc2)cn1 (centres unmarked) [Example 6, hydrochloride] .
0.8

Lab note: next compound to report on.
# return recorded MBC for entry C[C@H](NC(=O)[C@@H](N)CCCCNC(=O)/C=C/c1cn(CC(Cl)(C(=O)c2ccc(Cl)cc2Cl)c2ccccc2)cn1)C(=O)O (some centres unmarked)
3.1
